Listing: Ratio CC50/IC50 of selected compounds
Protocol Details: Selectivity index, ratio of CC50 for human MRC5 cells to IC50 for epimastigote form of Trypanosoma cruzi Tulahuen 2
Format: functional
Measure: Ratio CC50/IC50

INSERT INTO results (compound, test_value) VALUES
  ('CC(C)(C)OC(=O)N1CCCC(C(=O)O/N=C2\c3ccccc3-c3c2c(C(F)(F)F)nc2ccc(Br)cc32)C1 (centres undefined)', 0.47),
  ('O=[N+]([O-])c1ccc2nc(Oc3ccc(F)cc3C(O)Cn3ccnc3)c(Cc3ccccc3)cc2c1 (centres undefined)', 125.76),
  ('OC(c1ccccc1)c1c(C(F)(F)F)nc2ccc(Br)cc2c1Br (centres undefined)', 0.19),
  ('CC(O)c1cc(F)ccc1Oc1nc2ccc(NC(=O)Nc3cccc([N+](=O)[O-])c3)cc2cc1Cc1ccccc1 (centres undefined)', 2.15),
  ('CC(C)(C)OC(=O)NCC(=O)O/N=C1\c2ccccc2-c2c1c(N1CCN(c3ccccn3)CC1)nc1ccc(Br)cc21', 9.38),
  ('CC(=O)OC1(C)c2ccccc2-c2c1c(-n1ccnc1)nc1ccc(Br)cc21 (centres undefined)', 34.65),
  ('COc1ccccc1NC(=O)NCC(O)COC1(C)c2ccccc2-c2c1c(OC)nc1ccc(Br)cc21 (centres undefined)', 2.12),
  ('O=C1c2ccccc2-c2c1c(N1CCN(c3ccccn3)CC1)nc1ccc(Br)cc21', 0.63),
  ('CC1(O)c2ccccc2-c2c1c(OCC(F)(F)F)nc1ccc(Br)cc21 (centres undefined)', 2.86);
